# koff listing for each entry below
Target: T1, C-terminally FLAG-tagged human Gas6 recombinant protein (hGas6-F) (human, UniProt Q14393 31-678, gamma-carboxylated glutamic acid residues in the Gla domain (producer cells co-express rat VKOR and human GGCX); positions not given)
T1 construct: also called human Gas6-F; human Gas6 protein
T1 sequence: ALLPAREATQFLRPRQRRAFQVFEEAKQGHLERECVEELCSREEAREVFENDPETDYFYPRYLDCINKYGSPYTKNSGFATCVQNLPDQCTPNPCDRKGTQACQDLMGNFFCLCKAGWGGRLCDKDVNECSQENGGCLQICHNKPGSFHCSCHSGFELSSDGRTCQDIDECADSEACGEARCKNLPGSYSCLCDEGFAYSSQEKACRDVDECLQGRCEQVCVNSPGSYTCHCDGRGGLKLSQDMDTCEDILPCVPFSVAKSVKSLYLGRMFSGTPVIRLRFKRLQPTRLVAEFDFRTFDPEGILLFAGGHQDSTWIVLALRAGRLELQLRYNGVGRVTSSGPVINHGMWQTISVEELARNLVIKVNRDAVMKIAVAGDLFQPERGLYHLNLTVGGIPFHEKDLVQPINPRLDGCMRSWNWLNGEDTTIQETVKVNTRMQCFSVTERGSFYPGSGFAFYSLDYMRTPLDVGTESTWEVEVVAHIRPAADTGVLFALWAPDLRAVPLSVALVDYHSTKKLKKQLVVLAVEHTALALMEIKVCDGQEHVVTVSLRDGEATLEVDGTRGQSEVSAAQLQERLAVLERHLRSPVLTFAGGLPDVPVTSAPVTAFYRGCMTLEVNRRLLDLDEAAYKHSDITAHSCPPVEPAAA
Experiment: SPR Biacore T100, captured antibody, Gas6 analyte, first test
observed property: koff (s⁻¹)

{"columns": ["binder", "test value"],
 "data": [
  ["hzKM5321 LV1cHV7 antibody (antibody, V domains shown, Humanized; variant human IgG4 constant region (EU S228P, L235E, R409K), human kappa; also called B-15; LV1cHV7) VH: QIHLVQSGPELKKPGASVKISCKASGYTFTNYGMNWVKQAPGQGLKWMGWINTNTGEPTYTEEFKGRFVFSLDTSVTTAYLQISTLKAEDTATYFCARDEGWFVYWGQGTLITVSS VL: ETTLTQSPSSLSVSVGDRVTITCITSTDIDDDMNWYQQKPGKAPKLLISEGNTLRPGVPSRFSGSGSGTDFTLTISSLQPEDFATYYCLQTDSVPLTFGQGTKVEIK", 0.00075],
  ["hzKM5320 LV5HV2 antibody (antibody, V domains shown, Humanized; variant human IgG4 constant region (EU S228P, L235E, R409K), human kappa; also called kzKM5320 LV5HV2; A-20) VH: QVQLVQSGSELKKPGASVKVSCKASGYTFTNYGMNWVRQAPGQGLEWMGWINTETGEPTYSDDFKGRFVFSLDTSVSTAYLQISSLKAEDTATYFCAREDGYYGTLDYWGQGTTVTVSS VL: DIVMTQSPDSLAVSLGERVTINCKASQSVSNDVAWYQQKPGQSPKVLIYYASNRYTGVPDRFSGSGSGTDFTFTISSVQAEDVAVYFCQQDYSSPWTFGQGTKLEIK", 0.000158],
  ["hzKM5320 LV1aHV8 antibody (antibody, V domains shown, Humanized; variant human IgG4 constant region (EU S228P, L235E, R409K), human kappa; also called A-11) VH: QIQLVQSGPELKKPGASVKISCKASGYTFTNYGMNWVKQAPGQGLKWMGWINTETGEPTYSDDFKGRFVFSLDTSVTTAYLQISSLKAEDTATYFCAREDGYYGTLDYWGQGTTVTVSS VL: DVVMTQSPDSLAVSLGERVTINCKASQSVSNDVAWYQQKPGQSPKLLIYYASNRYTGVPDRFSGSGSGTDFTLTISSLQAEDVAVYFCQQDYSSPWTFGQGTKLEIK", 0.000694]
]}

src = patent US20180339041A1
